Source listed as patent US10077241B2.

Target: TGR5 (NCI-H716 cell line) (Homo sapiens)
Sequence (Q8TDU6 whole entry): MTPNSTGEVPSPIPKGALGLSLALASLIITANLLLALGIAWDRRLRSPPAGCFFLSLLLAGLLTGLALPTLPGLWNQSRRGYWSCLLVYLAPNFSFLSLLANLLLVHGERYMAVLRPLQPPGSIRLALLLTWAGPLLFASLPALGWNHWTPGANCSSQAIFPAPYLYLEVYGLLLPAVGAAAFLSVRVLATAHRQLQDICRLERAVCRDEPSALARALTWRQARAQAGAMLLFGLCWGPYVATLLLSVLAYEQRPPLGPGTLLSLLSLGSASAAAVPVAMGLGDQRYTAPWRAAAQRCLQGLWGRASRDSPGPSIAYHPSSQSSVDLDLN
Experiment: NCI-H716 cAMP Agonist EC50 Determination
measured_endpoint: EC50

Sample answers from the record:
COc1cc(C2(C)CCCc3nc(SCc4c(F)ccc(O)c4F)n(-c4ccc(F)cc4)c32)ccc1Cl (centres unmarked) [Example 95, trifluoroacetic acid] = 12.5 µM
COc1cc(C2(C)CCCc3nc(SCc4c(F)cncc4F)n(-c4ccc(F)cc4)c32)ccc1Cl (centres unmarked) [Example 98, trifluoroacetic acid] = 24.3 µM
COc1ccc(C2(C)CCCc3nc(SCc4c(F)cc(C#N)cc4F)n(-c4ccc(F)cc4)c32)cc1OC (centres unmarked) [Example 102] = 1.37 µM
COc1ccc(C2CCCc3nc(SCc4c(F)cc(OCCN5CCCC5)cc4F)n(-c4ccc(F)cc4)c32)cc1OC (centres unmarked) [Example 69] = 7.97 µM

input: Give TGR5 (NCI-H716 cell line) (Homo sapiens) EC50 for COc1cc(C2(C)CCCc3nc(SCc4c(F)cc(C(=O)NCCOCCOCCOCCO)cc4F)n(-c4ccc(F)cc4)c32)ccc1Cl (centres unmarked) [Example 84, trifluoroacetic acid]
output: 38.7 µM

input: Give TGR5 (NCI-H716 cell line) (Homo sapiens) EC50 for COc1cc(C2CCCc3nc(SCc4c(F)cccc4C#N)n(-c4ccc(F)cc4)c32)ccc1Cl (centres unmarked) [Example 14]
output: > 50 µM

input: Give TGR5 (NCI-H716 cell line) (Homo sapiens) EC50 for COCCOCCOCCOCCNC(=O)c1cc(F)c(CSc2nc3c(n2-c2ccc(F)cc2)C(c2ccc(OC)c(OC)c2)CCC3)c(F)c1 (centres unmarked) [Example 66]
output: 2.4 µM

input: Give TGR5 (NCI-H716 cell line) (Homo sapiens) EC50 for COc1cc(C2(C)CCCc3nc(SCc4c(F)cc(C(=O)O)cc4F)n(-c4ccc(F)cc4)c32)ccc1Cl (centres unmarked) [Example 81, trifluoroacetic acid]
output: > 50 µM

input: Give TGR5 (NCI-H716 cell line) (Homo sapiens) EC50 for COc1cc(C2CCCc3nc(SCc4c(F)cc(CCC(N)=O)cc4F)n(-c4ccc(F)cc4)c32)ccc1Cl (centres unmarked) [Example 45, trifluoroacetic acid]
output: > 50 µM

input: Give TGR5 (NCI-H716 cell line) (Homo sapiens) EC50 for COc1cc(C2(C)CCCc3nc(SCc4c(F)ccc(OCCN(C)C)c4F)n(-c4ccc(F)cc4)c32)ccc1Cl (centres unmarked) [Example 96, trifluoroacetic acid]
output: > 50 µM

input: Give TGR5 (NCI-H716 cell line) (Homo sapiens) EC50 for COCCOCCOCCOCCNC(=O)c1cc(F)c(CSc2nc3c(n2-c2ccc(F)cc2)C(c2cc(OC)c(OC)cc2Br)CCC3)c(F)c1 (centres unmarked) [Example 68a]
output: 22 µM
